Reported pIC50 values for a set of compounds
Biological target: Tb-labeled inactive PDGFRβ (Homo sapiens (Human))
Sequence (P09619 33-1106): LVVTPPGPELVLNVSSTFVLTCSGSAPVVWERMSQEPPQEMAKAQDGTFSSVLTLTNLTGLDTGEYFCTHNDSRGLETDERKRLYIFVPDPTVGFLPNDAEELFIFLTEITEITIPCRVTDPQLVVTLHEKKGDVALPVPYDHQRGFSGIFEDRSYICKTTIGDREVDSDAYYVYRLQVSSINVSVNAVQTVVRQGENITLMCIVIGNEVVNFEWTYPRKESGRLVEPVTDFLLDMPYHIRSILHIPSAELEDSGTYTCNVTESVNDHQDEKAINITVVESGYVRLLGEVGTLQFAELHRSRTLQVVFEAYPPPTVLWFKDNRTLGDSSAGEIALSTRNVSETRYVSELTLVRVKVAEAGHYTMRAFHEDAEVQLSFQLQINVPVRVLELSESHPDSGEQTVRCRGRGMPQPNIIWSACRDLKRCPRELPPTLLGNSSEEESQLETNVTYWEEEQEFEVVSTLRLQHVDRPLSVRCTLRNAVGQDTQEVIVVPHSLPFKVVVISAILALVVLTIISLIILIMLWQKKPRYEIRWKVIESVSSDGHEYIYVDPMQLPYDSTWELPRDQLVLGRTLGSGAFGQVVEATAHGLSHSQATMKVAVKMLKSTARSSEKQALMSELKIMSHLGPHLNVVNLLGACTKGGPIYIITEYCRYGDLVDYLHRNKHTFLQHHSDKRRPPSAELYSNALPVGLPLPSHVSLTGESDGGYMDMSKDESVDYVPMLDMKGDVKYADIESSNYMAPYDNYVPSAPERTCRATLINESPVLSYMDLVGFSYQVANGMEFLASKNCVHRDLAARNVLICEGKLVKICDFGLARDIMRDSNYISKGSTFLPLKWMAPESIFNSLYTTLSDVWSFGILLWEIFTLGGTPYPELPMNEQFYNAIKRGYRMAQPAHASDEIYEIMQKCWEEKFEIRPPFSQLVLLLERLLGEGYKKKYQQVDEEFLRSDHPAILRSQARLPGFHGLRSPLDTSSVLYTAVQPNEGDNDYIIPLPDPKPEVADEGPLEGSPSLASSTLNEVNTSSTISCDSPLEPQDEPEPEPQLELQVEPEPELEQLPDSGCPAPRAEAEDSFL
Assay: PDGFRβ LanthaScreen Assay
Settings: read-out: PDGFR Lantha IC50
pIC50 is a log-scale quantity: -log10 of the concentration expressed in molar.

Use the examples below as a reference point.
Cc1ncc(C(=O)NCCN2CC3CCC2CC3)cc1NC(=O)c1cnn2cc(-c3ccc4oc(=O)[nH]c4c3)sc12 [Example 145] | 8.85
Cc1ncc(C(=O)NCCN2CCCC2)cc1NC(=O)c1cnn2cc(-c3cnn(C)c3)sc12 [Example 219] | 7.85
COCCn1cc(-c2cn3ncc(C(=O)Nc4cc(NC(=O)CCN5CC(C)(C)C5)cnc4C)c3s2)cn1 [Example 93] | 7.54
Cc1ncc(C(=O)NCCN2CCC23CCC3)cc1NC(=O)c1cnn2cc(-c3cn(C)nc3C)sc12 [Example 175] | 8.42
Cc1ncc(NC(=O)CN2CC(C)(C)C2)cc1NC(=O)c1cnn2cc(-c3cnn4c3COCC4)sc12 [Example 476] | 8.77
COCCn1cc(-c2cn3ncc(C(=O)Nc4cc(NC(=O)C5CN(C(C)C)C5)cnc4C)c3s2)cn1 [Example 342] | 7.80
COCCn1cc(-c2cn3ncc(C(=O)Nc4cc(C(=O)NCCN5CC6(CCC6)C5)cnc4C)c3s2)cn1 [Example 168] | 7.76
Cc1ncc(NC(=O)CN2CC(C)(C)C2)cc1NC(=O)c1cnn2cc(-c3cccnc3C)sc12 [Example 390] | 8.00

Exam item: Query: pIC50; subject: COc1ncccc1-c1cn2ncc(C(=O)Nc3cc(NC(=O)CN4CCCC4)cnc3C)c2s1 [Example 313]
Marked response: 8.59

Exam item: Cc1ncc(NC(=O)CN2CC(C)(C)C2)cc1NC(=O)c1cnn2cc(-c3cnn(CC(F)(F)F)c3)sc12 [Example 268] , same question.
Marked response: 7.84

Exam item: Next compound: CC(=O)Nc1cncc(-c2cn3ncc(C(=O)Nc4cc(NC(=O)CN5CC(C)(C)C5)cnc4C)c3s2)c1 [Example 277]
Marked response: 8.24

Exam item: How about Cc1cc(C(=O)NCCN(C)C2CCOCC2)sc1NC(=O)c1cnn2cc(-c3cnn(C)c3)sc12 [Example 192] ?
Marked response: 5.86

Exam item: Moving on to the next compound: Cc1ncc(NC(=O)CN2CCCC[C@@H]2C)cc1NC(=O)c1cnn2cc(-c3cnn(CCO)c3)sc12 [Example 34]
Marked response: 7.87

Exam item: What do we get for Cc1ncc(C(=O)NCCN2CCCC2(C)C)cc1NC(=O)c1cnn2cc(-c3cn(C)cn3)sc12 [Example 163] ?
Marked response: 8.41

Exam item: Request: CNC(=O)Cn1cc(-c2cn3ncc(C(=O)Nc4cc(NC(=O)CN5CC(C)(C)C5)cnc4C)c3s2)cn1 [Example 279]
Marked response: 8.07

Exam item: Moving on to Cc1ncc(NC(=O)CN2CC(C)(C)C2)cc1NC(=O)c1cnn2cc(-c3cnn(CC4COC4)c3)sc12 [Example 263]
Marked response: 8.10

Exam item: Proceed to Cc1ncc(NC(=O)OC[C@H]2CCCN2C)cc1NC(=O)c1cnn2cc(-c3cnn(C)c3)sc12 [Example 244]
Marked response: 7.82

Exam item: Quick one: Cc1ncc(C(=O)NCCN2CCC3(CC3)C2)cc1NC(=O)c1cnn2cc(-c3cn(C)cn3)sc12 [Example 162]
Marked response: 8.11

Exam item: Next compound: COCCn1cc(-c2cn3ncc(C(=O)Nc4cc(NC(=O)CN5CCCC5(C)C)cnc4C)c3s2)cn1 [Example 329]
Marked response: 8.25

Exam item: Request: COc1ncccc1-c1cn2ncc(C(=O)Nc3cc(NC(=O)CN4C[C@H](CO)OC(C)(C)C4)cnc3C)c2s1 [Example 379]
Marked response: 8.57

Exam item: Entry Cc1ncc(C(=O)NCCN2CCOCC23CC3)cc1NC(=O)c1cnn2cc(-c3cnn(C)c3)sc12 [Example 110] please
Marked response: 8.24

meta.source: patent US20240109917A1
